Target: NDM-1 (New Delhi metallo-β-lactamase-1) (Klebsiella pneumoniae, UniProt C7C422)
Sequence (C7C422 29-270, looked up, species assumed): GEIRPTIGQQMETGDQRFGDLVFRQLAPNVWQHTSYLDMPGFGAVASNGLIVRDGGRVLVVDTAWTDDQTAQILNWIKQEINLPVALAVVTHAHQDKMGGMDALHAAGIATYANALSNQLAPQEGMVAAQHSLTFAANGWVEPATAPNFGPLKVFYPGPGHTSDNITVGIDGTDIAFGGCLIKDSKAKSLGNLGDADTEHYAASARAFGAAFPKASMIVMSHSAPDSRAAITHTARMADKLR
Test: Enzyme inhibition assay, NDM-1
Assay type: biochemical
pIC50: −log10 of the molar value.
Value Kind: pIC50

[
  {
    "Smiles Representation": "Cc1cccc2c(C3=CCNCC3)c(C(=O)O)[nH]c12",
    "Value Kind": "pIC50",
    "Numeric Result": 6.40
  }
]

====

Biological target: VIM-2 (Veronese metallo-β-lactamase-2) (Escherichia coli, UniProt Q5U7L7)
Assay: Enzyme inhibition assay, VIM-2
Format: biochemical
Settings: read-out: pIC50 VIM-2 (converted)
Param label: returns class 1 when IC50 < 30 nM, returns class 0 otherwise, including exact equality.

[
  {
    "Smiles Representation": "Cc1cccc2c(-c3ccccn3)c(C(=O)O)[nH]c12",
    "Qualitative Label": "class 0"
  },
  {
    "Smiles Representation": "Cc1cccc2c(C3=CCN(C(=O)OC(C)(C)C)CC3)c(C(=O)O)[nH]c12",
    "Qualitative Label": "class 0"
  },
  {
    "Smiles Representation": "CC(C)c1cccc2c(-c3ccc(S(C)(=O)=O)cc3)c(C(=O)O)[nH]c12",
    "Qualitative Label": "class 1"
  },
  {
    "Smiles Representation": "CC(C)c1cccc2c(-c3cc(F)cc(F)c3)c(C(=O)O)[nH]c12",
    "Qualitative Label": "class 1"
  },
  {
    "Smiles Representation": "COc1cccc2c(-c3ccc(F)cc3)c(C(=O)O)[nH]c12",
    "Qualitative Label": "class 0"
  },
  {
    "Smiles Representation": "CC(C)c1cccc2c(-c3ccncc3)c(C(=O)O)[nH]c12",
    "Qualitative Label": "class 0"
  },
  {
    "Smiles Representation": "CC(C)c1cccc2c(-c3ccc(Cl)cc3)c(C(=O)O)[nH]c12",
    "Qualitative Label": "class 1"
  },
  {
    "Smiles Representation": "CNS(=O)(=O)c1ccc(-c2c(C(=O)O)[nH]c3c(C(C)C)cccc23)cc1",
    "Qualitative Label": "class 1"
  },
  {
    "Smiles Representation": "CC(C)c1cccc2c(-c3ccc(S(=O)(=O)N(C)C)cc3)c(C(=O)O)[nH]c12",
    "Qualitative Label": "class 0"
  },
  {
    "Smiles Representation": "COc1cc(C)c2[nH]c(C(=O)O)c(-c3ccc(F)cc3)c2c1",
    "Qualitative Label": "class 0"
  },
  {
    "Smiles Representation": "CC(C)c1cccc2c(-c3ccc(S(=O)(=O)N(C)C)cc3)c(-c3nnn[nH]3)[nH]c12",
    "Qualitative Label": "class 0"
  },
  {
    "Smiles Representation": "Cc1cccc2c1cc(C(=O)O)n2-c1ccc(F)cc1",
    "Qualitative Label": "class 0"
  },
  {
    "Smiles Representation": "COCCc1cccc2c(-c3ccc(F)cc3)c(C(=O)O)[nH]c12",
    "Qualitative Label": "class 0"
  },
  {
    "Smiles Representation": "Cc1cccc2c(-c3ccc(OC(F)(F)F)cc3)c(C(=O)O)[nH]c12",
    "Qualitative Label": "class 0"
  }
]
